test system: housefly adults; format: in vivo; details: tetramethrin + 5 times weight of synergist; three batches (tetramethrin alone 0.530, 0.520, 0.570)
MEASURE: LD50

Please review the entries below; each comes with its answer.
{"columns": ["COMPOUND", "ASSAYED_TARGET", "LD50"],
 "data": [
  ["C#CCOC(=O)C(CC=C)(OC)c1ccccc1 (stereo not drawn) [Present compound (3), Propargyl α-allyl-α-methoxyphenylacetate]", "housefly adults", "0.064 γ/Fly"],
  ["C#CCC(OC)(C(=O)OCC=C)c1ccccc1 (stereo not drawn) [Present compound (15), Allyl α-propargyl-α-methoxyphenylacetate]", "housefly adults", "0.060 γ/Fly"],
  ["C#CCCCCOCC(CCC)(OC)c1ccccc1 (stereo not drawn)", "housefly adults", "0.081 γ/Fly"],
  ["C#CCOCC(CC(C)C)(OCC=C)c1ccccc1 (stereo not drawn)", "housefly adults", "0.056 γ/Fly"],
  ["C#CCCOC(=O)C(CC=C)(OC)c1ccccc1 (stereo not drawn)", "housefly adults", "0.077 γ/Fly"],
  ["C#CCCCCOC(=O)C(CCC)(OCC)c1ccccc1 (stereo not drawn)", "housefly adults", "0.063 γ/Fly"],
  ["C#CCOC(=O)C(CCC)(OC)c1ccccc1 (stereo not drawn)", "housefly adults", "0.068 γ/Fly"],
  ["C#CCOC(=O)C(CCC=C)(OC)c1ccccc1 (stereo not drawn)", "housefly adults", "0.071 γ/Fly"],
  ["C#CCOCC(CC=C)(OCC)c1ccccc1 (stereo not drawn)", "housefly adults", "0.060 γ/Fly"],
  ["C=CCOC(=O)C(Cc1ccccc1)(OC)c1ccccc1 (stereo not drawn) [Present compound (13), Allyl α-benzyl-α-methoxyphenylacetate]", "housefly adults", "0.050 γ/Fly"]
]}

Record C#CCCOCC(CCC)(OC)c1ccccc1 (stereo not drawn) , field LD50: 0.081 γ/Fly

Record C#CCOC(=O)C(OC)(c1ccccc1)C(C)C (stereo not drawn) , field LD50: 0.061 γ/Fly

----------
system: housefly adults; type: in vivo; conditions: allethrin + 5 times weight of synergist; three batches
MEASURE: LD50

{"columns": ["COMPOUND", "RESULT"],
 "data": [
  ["C#CCOC(=O)C(Cc1ccccc1)(OC)c1ccccc1 (stereo not drawn) [Present compound (11)]", "0.060 γ/Fly"],
  ["C#CCOC(=O)C(CC=C)(OC)c1ccccc1 (stereo not drawn) [Present compound (3), Propargyl α-allyl-α-methoxyphenylacetate]", "0.076 γ/Fly"],
  ["C#CCOCC(CC=C)(OC)c1ccccc1 (stereo not drawn) [Present compound (20)]", "0.062 γ/Fly"],
  ["C#CCOC(=O)C(CC=C)(OCC)c1ccccc1 (stereo not drawn) [Present compound (5), Propargyl α-allyl-α-ethoxyphenylacetate]", "0.057 γ/Fly"]
]}

Record C#CCCOC(=O)C(OC)(c1ccccc1)c1ccccc1 [Present compound (16)] , field LD50: 0.083 γ/Fly

Record C#CCOC(=O)C(CCC)(OC)c1ccccc1 (stereo not drawn) [Present compound (1)] , field LD50: 0.085 γ/Fly

----------
test system: housefly adults; type: in vivo; conditions: 3,4-dimethylphenyl-N-methylcarbamate + synergist; three batches
Entries annotated with measured LD50

Please review the entries below; each comes with its answer.
{"columns": ["COMPOUND", "LD50"],
 "data": [
  ["C#CCOC(=O)C(CCC)(OC)c1ccccc1 (stereo not drawn)", "0.278 γ/Fly"],
  ["C#CCOC(=O)C(CC=C)(OCC)c1ccccc1 (stereo not drawn) [Present compound (5), Propargyl α-allyl-α-ethoxyphenylacetate]", "0.238 γ/Fly"]
]}

# value of LD50, housefly adults, item C#CCOC(=O)C(CC=C)(OC)c1ccccc1 (stereo not drawn) [Present compound (3), Propargyl α-allyl-α-methoxyphenylacetate] = 0.273 γ/Fly

# value of LD50, housefly adults, item C#CCOC(=O)C(Cc1ccccc1)(OC)c1ccccc1 (stereo not drawn) = 0.21 γ/Fly

# value of LD50, housefly adults, item C#CCOCC(CC=C)(OC)c1ccccc1 (stereo not drawn) = 0.252 γ/Fly

# value of LD50, housefly adults, item C#CCCOC(=O)C(OC)(c1ccccc1)c1ccccc1 = 0.25 γ/Fly
